# Assay remarks: binders of probe aFGF2 on microarray, primary screen, stem cell growth factor project, biochemical, small-molecule microarray, fluorescence 635/667 (AID 1067);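 note: measures binding of biotinylated aFGF2 protein to printed compounds on slides; z-score merges feature fluorescence and signal-to-noise across triplicate slides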
# Conditions used: higher = more signal
The entries below come with measured composite z-score values attached.
When you answer, write just the number.

COc1ccc(CCN2C(=O)[C@@]3(c4ccc([N+](=O)[O-])cc4)CC(=O)N(C4CCCCC4)[C@@H]3c3ccc(CO)cc32)cc1 :: -0.148
C=CCOC(=O)[C@@H]1[C@H]2C(=O)O[C@H](c3ccccc3)[C@H](c3ccccc3)N2[C@H](c2ccc(OCCOC(=O)[C@@H]3C[C@@H]4C(=O)N[C@@H](CCCCN(C)C)C(=O)N4[C@@H]3c3ccc(O)cc3)cc2)[C@@]12C(=O)Nc1ccc(I)cc12 :: -0.0216
COC(=O)[C@@]1(Cc2ccccc2)[C@H]2c3cc(C(=O)N(C)C)n(CCSCCO)c3C[C@H]2CN1C(=O)c1ccccc1 :: 0.0413

composite z-score reading for [N-]=[N+]=NCc1ccccc1[C@@H]1OC(c2ccc(OCCCO)cc2)=N[C@]1(Cc1ccccc1N=[N+]=[N-])C(=O)N1CCOCC1 : 0.321

composite z-score reading for O=C1O[C@@H](c2ccccc2)[C@@H](c2ccccc2)N2[C@@H](c3ccccc3OCCO)[C@]3(C(=O)Nc4ccc(C#CC5=CCCCC5)cc43)[C@@H](C(=O)Nc3nc4ccccc4s3)[C@H]12 : -0.0267

composite z-score reading for O=C(NCc1ccc(F)cc1)[C@H]1C[C@H]2C(=O)N[C@@H](Cc3ccccc3)C(=O)N2[C@H]1c1ccc(O)cc1 : -0.185

----------
# Target under test: Fibroblast growth factor 2 (Homo sapiens)
# Assay remarks: FGF2 binders on small-molecule microarrays, primary screen, biochemical, small-molecule microarray, 635/667 nm fluorescence (AID 1133)
# Conditions used: small-molecule microarray binding, FGF2, fluorescence 635/667; higher = more signal
Experimental endpoint: composite z-score
When you answer, write just the number.

Some solved entries appear below for comparison.
COc1ccc([Si](C)(C)[C@H]2[C@H](CCO)O[C@@]3(C(=O)N(C)c4c(Br)cc(C)cc43)[C@@H]2C)cc1 :: 0.425
COC(=O)c1c(CC[C@@H](CO)NC(=O)N[C@@H](C)Cn2cc(C3(O)CCCCC3)nn2)oc(C(C)=O)c1C(=O)OC :: 1.29
C=CCNC(=O)[C@@H]1[C@H]2C(=O)O[C@H](c3ccccc3)[C@H](c3ccccc3)N2[C@H](c2ccc(OCCO)cc2)[C@@]12C(=O)Nc1ccc(C#Cc3ccc(OC)cc3)cc12 :: 0.989

composite z-score reading for COCCOC(=O)N1C(=O)[C@@]2(c3cc(C#Cc4ccc(OC)cc4)ccc31)[C@H](C(=O)N1CCCCCCC1)[C@H]1C(=O)O[C@H](c3ccccc3)[C@H](c3ccccc3)N1[C@@H]2c1ccc(OCCO)cc1 : 2.1

composite z-score reading for CC(C)C[C@@H]1NC(=O)[C@@H]2C[C@H](C(=O)NCCCCCN)[C@H](c3cccc(OCCO)c3)N2C1=O : 0.591

composite z-score reading for COc1ccc(C(O)C2C=CC3C(=O)N(c4ccccc4)C(=O)C3N2Nc2ccccc2F)cc1OCc1ccccc1 (stereo not given) : -0.179

composite z-score reading for CC(=O)N1Cc2ccccc2C[C@@]2(COC(c3ccc(OCCCO)cc3)=N2)C1=O : 0.701

----------
# Target under test: Streptavidin (Streptomyces avidinii) (UniProt P22629)
# Sequence (P22629 whole entry, looked up): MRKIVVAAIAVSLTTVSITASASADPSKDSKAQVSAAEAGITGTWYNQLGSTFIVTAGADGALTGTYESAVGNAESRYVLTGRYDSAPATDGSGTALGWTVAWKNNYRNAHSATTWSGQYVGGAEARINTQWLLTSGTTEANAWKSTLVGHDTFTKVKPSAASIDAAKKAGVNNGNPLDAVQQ
# Assay remarks: streptavidin binders on small-molecule microarray, primary screen, artefact control for SMM compound annotation, biophysical, 635/667 nm fluorescence (AID 1147);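 note: signal reflects streptavidin binding to arrayed compounds as a control protein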
# Conditions used: streptavidin binding, higher = more signal
Experimental endpoint: composite z-score

Some solved entries appear below for comparison.
COC(=O)[C@@]1(Cc2ccc(F)cc2)[C@H]2c3cc(C(=O)N(C)C)n(Cc4nc5ccccc5[nH]4)c3C[C@H]2CN1C(=O)c1ccccc1 :: 0.711
CC(CO)N1C(=O)[C@@H]2C3C(=O)OCCC/C=C\[C@H]3OC23C=CCN(c2ccc4ccccc4c2)C(=O)[C@@H]13 (some centres not stated) :: -0.342
CO[C@H]1O[C@H](CO)[C@@H](OC(=O)Nc2ccc(Br)cc2)[C@H](OC(=O)c2cc3ccccc3[nH]2)[C@H]1OC(=O)c1cc2ccccc2[nH]1 :: 1.22
NCCCCCNC(=O)[C@@H]1C[C@@H]2C(=O)NCC(=O)N2[C@@H]1c1ccc(O)cc1 :: 1.2
O=C1C2C=CC(C(O)C(c3ccccc3)c3ccccc3)N(n3cnnc3)C2C(=O)N1Cc1ccccc1 (configuration not stated) :: 1.12

composite z-score reading for O=C1O[C@H](c2ccccc2)[C@H](c2ccccc2)N2[C@H]1[C@@H](C(=O)O)[C@]1(C(=O)Nc3ccc(C#CCCO)cc31)[C@H]2c1ccc(O)cc1 : -0.668

composite z-score reading for CN1C(=O)C2C=CC(C(O)c3cccs3)N(Nc3ccccc3)C2C1=O (configuration not stated) : 0.389

composite z-score reading for C=CCN1C(=O)[C@@]2(O[C@@H](CCO)[C@H]([Si](C)(C)c3ccc(OC)cc3)[C@H]2C)c2cc(NC(=O)c3ccc(OC)cc3)ccc21 : 0.15

composite z-score reading for Cc1ccc(S[C@]2(C(=O)NC(C)C)CC(=O)N(Cc3ccccc3Cl)[C@@H]2c2ccc(CO)cc2I)cc1 : -0.265

composite z-score reading for COCCOC(=O)N1C(=O)[C@@]2(c3cc(C#CC4=CCCCC4)ccc31)[C@H](C(N)=O)[C@H]1C(=O)O[C@H](c3ccccc3)[C@H](c3ccccc3)N1[C@@H]2c1ccc(OCCO)cc1 : -0.602

composite z-score reading for COc1cc2c(cc1O)C(C1CC1)N(Cc1cc3c(cc1Br)OCO3)CC2 (configuration not stated) : -0.735

composite z-score reading for CCCCCCC#C[Si](O[C@H](c1ccccc1)c1cn([C@H](CO)Cc2ccccc2)nn1)(C(C)C)C(C)C : -0.463

composite z-score reading for O=C1OCCC/C=C\[C@H]2OC34C=CCN(Cn5nnc6ccccc65)C(=O)[C@H]3N(CCCCCCO)C(=O)[C@@H]4C12 (some centres not stated) : -1.08

composite z-score reading for COCCOC(=O)N1C(=O)[C@@]2(c3cc(C#CC4(O)CCCCCC4)ccc31)[C@H](c1ccc(O)cc1)N1[C@H](c3ccccc3)[C@H](c3ccccc3)OC(=O)[C@H]1[C@@H]2C(=O)Nc1nc2ccccc2s1 : 1.19

composite z-score reading for COC(=O)C=C(CC(O)c1cccc(Cl)c1)OC (configuration not stated) : 0.307

composite z-score reading for Cc1ccc(S[C@]2(C(=O)NCCN3CCOCC3)CC(=O)N(Cc3ccccc3Cl)[C@@H]2c2ccc(CO)cc2)cc1 : -0.625

composite z-score reading for C[N+](C)(C)CCCC[C@@H]1NC(=O)[C@@H]2C[C@H](C(=O)NCCCCCN)[C@H](c3cccc(OCCO)c3)N2C1=O : 1.19

composite z-score reading for COCCOC(=O)N1C(=O)[C@@]2(c3cc(C#Cc4ccc(OC)cc4)ccc31)[C@H](c1ccccc1OCCO)N1[C@H](c3ccccc3)[C@H](c3ccccc3)OC(=O)[C@H]1[C@@H]2C(=O)N1CCN(c2ncccn2)CC1 : 0.226

composite z-score reading for CC(C)C[C@@H]1NC(=O)[C@@H]2C[C@H](C(=O)NCCCCCN)[C@H](c3cccc(OCCO)c3)N2C1=O : 1.05

composite z-score reading for COCCCNC(=O)[C@@]1(Cc2ccccc2)N=C(c2ccc(OCCCO)cc2)O[C@H]1c1ccccc1 : 2.34

----------
# Target under test: Concanavalin-A (Canavalia ensiformis)
# Assay remarks: ConA small-molecule binders, primary screen, artefact control for SMM control protein annotation, biochemical, small-molecule microarray, Alexa647 label, 635 nm (AID 1127);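 note: z combines 667 nm emission intensity with signal-to-noise across three replicate slides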
# Conditions used: ConA-A647 binding fluorescence, higher = more signal
Experimental endpoint: composite z-score
When you answer, write just the number.

Some solved entries appear below for comparison.
CC(=O)n1cc(C(O)C2C=CC3C(=O)N(C)C(=O)C3N2Nc2ccccc2)c2ccccc21 (configuration not stated) :: 0.897
CC(C)C[C@@H]1NC(=O)[C@H]2C[C@@H](C(=O)NCCCCCCN(C)C)[C@@H](c3ccc(O)cc3)N2C1=O :: 1.17
CN1C(=O)C2C=CC(C(O)C3=C[C@H]4C[C@@H](C3)C4(C)C)N(Nc3ccccc3)C2C1=O (some centres not stated) :: 0.782
C=CCNC(=O)[C@@H]1[C@H]2C(=O)O[C@H](c3ccccc3)[C@H](c3ccccc3)N2[C@H](c2ccc(OCCO)cc2)[C@@]12C(=O)Nc1ccc(C#CCCO)cc12 :: 1.15
CCOC(=O)C[C@H]1[C@H](OC(=O)c2ccc(C(=O)c3ccccc3)cc2)[C@@H](NC(=O)c2ccc(-c3ccccc3)cc2)c2cc(OCCCO)ccc2N1C(=O)c1ccccc1 :: 0.989
CN1C(=O)C2C=CC(C(O)Cc3ccccc3)N(Nc3ccccc3)C2C1=O (configuration not stated) :: 0.672
O=C1C[C@]2(c3ccc([N+](=O)[O-])cc3)C(=O)N(CCN3CCOCC3)c3cc(CO)ccc3[C@H]2N1C1CCCCC1 :: -0.172
COCCOC(=O)N1C(=O)[C@@]2(c3cc(C#CC4=CCCCC4)ccc31)[C@H](C(N)=O)[C@H]1C(=O)O[C@H](c3ccccc3)[C@H](c3ccccc3)N1[C@@H]2c1ccc(OCCO)cc1 :: 0.459
COc1ccc(C(O)C2C=CC3C(=O)N(c4ccccc4)C(=O)C3N2Nc2ccccc2F)cc1OCc1ccccc1 (configuration not stated) :: 1.13
COC(=O)c1c(CC[C@@H](CO)NC(=O)N[C@H](Cn2cc(Cc3ccccc3)nn2)C(C)C)oc(C(C)=O)c1C(=O)OC :: 0.321

Alright, here's another molecule for you.
composite z-score reading for C#CCNC(=O)[C@H](Cc1ccccc1)NC(=O)CCC(=O)O : -1.83

These measurements were taken from PubChem BioAssay.
